Experiment: Serum levels PO in squirrel monkeys (AUCs, 0-6h.), cylinder cup method
Type: in vivo
Conditions: monkey, serum, po, 20 mg/kg, oral single dose 20 mg./kg., 3.5 mg./ml. in vehicle
measured-property: AUC at 6 h (ng·h/mL)

[
  {
    "given-smiles": "CC[C@H]1OC(=O)C[C@@H](OC(C)=O)[C@H](C)[C@@H](O[C@@H]2O[C@H](C)[C@@H](O[C@H]3C[C@@](C)(O)[C@@H](OC(=O)CC(C)C)[C@H](C)O3)[C@H](N(C)C)[C@H]2OC(C)=O)[C@@H](CC=NN2CCS(=O)(=O)CC2)C[C@@H](C)C(=O)/C=C/C(C)=C/[C@@H]1COC(C)=O",
    "data-value": 3800
  }
]

###

Assay: Serum levels PO in squirrel monkeys (AUCs, 0-6h.), cylinder cup method
Type: in vivo
Details: monkey, serum, po, 20 mg/kg, oral single dose 20 mg./kg., 20 mg./ml. in PEG 40 castor oil/lactic acid vehicle
Each entry below carries its recorded AUC at 6 h.
measured-property: AUC at 6 h (ng·h/mL)

[
  {
    "compound": "CC[C@H]1OC(=O)C[C@@H](OC(C)=O)[C@H](C)[C@@H](O[C@@H]2O[C@H](C)[C@@H](O[C@H]3C[C@@](C)(O)[C@@H](OC(=O)CC(C)C)[C@H](C)O3)[C@H](N(C)C)[C@H]2OC(C)=O)[C@@H](CC=O)C[C@@H](C)C(=O)/C=C/C(C)=C/[C@@H]1CO",
    "data-value": 10400
  },
  {
    "compound": "CC[C@H]1OC(=O)C[C@@H](OC(C)=O)[C@H](C)[C@@H](O[C@@H]2O[C@H](C)[C@@H](O[C@H]3C[C@@](C)(O)[C@@H](OC(=O)CC(C)C)[C@H](C)O3)[C@H](N(C)C)[C@H]2O)[C@@H](CC=O)C[C@@H](C)C(=O)/C=C/C(C)=C/[C@@H]1CO[C@@H]1O[C@H](C)[C@@H](O)[C@@H](OC)[C@H]1OC [IV, 3-O-Acetyl-4\"-O-iso-valeryltylosin, reference compound]",
    "data-value": 15800
  },
  {
    "compound": "CC[C@H]1OC(=O)C[C@@H](OC(C)=O)[C@H](C)[C@@H](O[C@@H]2O[C@H](C)[C@@H](O[C@H]3C[C@@](C)(O)[C@@H](OC(=O)CC(C)C)[C@H](C)O3)[C@H](N(C)C)[C@H]2O)[C@@H](CC=O)C[C@@H](C)C(=O)/C=C/C(C)=C/[C@@H]1CO [V, reference compound]",
    "data-value": 5500
  }
]

###

Experiment: Serum levels PO in squirrel monkeys (AUCs, 0-6h.), cylinder cup method
Type: in vivo
Conditions: monkey, serum, po, 20 mg/kg, oral single dose 20 mg./kg., 3.5 mg./ml. in vehicle; crossover experiment
Each entry below carries its recorded AUC at 6 h.

[
  {
    "compound": "CC[C@H]1OC(=O)C[C@@H](OC(C)=O)[C@H](C)[C@@H](O[C@@H]2O[C@H](C)[C@@H](O[C@H]3C[C@@](C)(O)[C@@H](OC(=O)CC(C)C)[C@H](C)O3)[C@H](N(C)C)[C@H]2OC(C)=O)[C@@H](CC=O)C[C@@H](C)C(=O)/C=C/C(C)=C/[C@@H]1COC(C)=O",
    "AUC at 6 h / ng·h/mL": 13500
  },
  {
    "compound": "CC[C@H]1OC(=O)C[C@@H](OC(C)=O)[C@H](C)[C@@H](O[C@@H]2O[C@H](C)[C@@H](O[C@H]3C[C@@](C)(O)[C@@H](OC(=O)CC(C)C)[C@H](C)O3)[C@H](N(C)C)[C@H]2O)[C@@H](CC=O)C[C@@H](C)C(=O)/C=C/C(C)=C/[C@@H]1CO[C@@H]1O[C@H](C)[C@@H](O)[C@@H](OC)[C@H]1OC [IV, 3-O-Acetyl-4\"-O-iso-valeryltylosin, reference compound]",
    "AUC at 6 h / ng·h/mL": 7600
  }
]
